This collection of values is drawn from PubChem BioAssay (NCATS).

Experiment: BET inhibitor-based combinations targeting novel dependencies in MECOM-rearranged (r) AML: UCSD-AML1 cell line (AID 2202235); note: nearly all actives have a fitted effect of over 40% in size
Conditions: UCSD-AML1 AML cells viability, CellTiter-Glo, 48 h; series mostly up to 46 µM
Records with an inconclusive call do not appear. Calls of active or inactive are those of the source. Calls come from the whole dose curve; as a rule, active = well fitted inhibition curve with a large enough effect; inconclusive = small, poorly fitted or top-dose-only effect; inactive = no such curve, though single readings can be large or run the other way.
Response enum: Y (active), N (inactive)

Worked examples, 5 compounds total:
CC1(C)Cc2c(-c3ccccc3)c(-c3ccc(Cl)cc3)c(CC(=O)O)n2C1 : N
CC(C)(C)C(=O)CN1C(=O)[C@H](NC(=O)Nc2cccc(C(=O)O)c2)CN(C2CCCCC2)c2ccccc21 : N
COc1nccc(-c2c(-c3ccc(F)cc3)ncn2C2CCNCC2)n1 : Y
O=C(O)[C@H](Cc1c[nH]c2ccccc12)N1C(=O)c2ccccc2C1=O : Y
CC(C)(Oc1ccc(C2CC2(Cl)Cl)cc1)C(=O)O (centres undefined) : N

Input: So what was the verdict on O=C(Nc1ccc([N+](=O)[O-])cc1Cl)c1cc(Cl)ccc1O in this test?
Output: Y

Input: So what was the verdict on Cc1cccc(-c2[nH]c(C(C)(C)C)nc2-c2ccc3nccnc3c2)n1 in this test?
Output: N

* * *

Experiment: BET inhibitor-based combinations targeting novel dependencies in MECOM-rearranged (r) AML: HNT-34 cell line (AID 2202234); note: nearly all actives have a fitted effect of over 35% in size
Details: HNT-34 AML viability, CellTiter-Glo luminescence, 48 h; series mostly up to 46 µM
Inconclusive results are not listed. The source made the active and inactive calls. The call rests on the fitted dose curve; in most records, active means well fitted inhibition curve with a large enough effect; inconclusive means small, poorly fitted or top-dose-only effect; inactive means no such curve, though single readings can be large or run the other way.
Response enum: 1 (yes) (active), 0 (no) (inactive)

Worked examples, 5 molecules total:
CC(=O)OCC(=O)[C@@]12N=C(C)O[C@@H]1C[C@H]1[C@@H]3CCC4=CC(=O)C=C[C@]4(C)[C@H]3[C@@H](O)C[C@@]12C : 0 (no)
Cc1ccccc1C(C(=O)NC1CCCCC1)N(C(=O)CNc1ccc(C#N)cc1)c1cccc(F)c1 (centres undefined) : 0 (no)
CCOC(=O)[C@H](CCc1ccccc1)N[C@@H](C)C(=O)N1[C@H](C(=O)O)C[C@@H]2CCC[C@@H]21 : 0 (no)
Nc1ccc(-c2ccc3ncc4ccc(=O)n(-c5cccc(C(F)(F)F)c5)c4c3c2)cn1 : 1 (yes)
O=C(O)CCc1ccc(NCc2cccc(Oc3ccccc3)c2)cc1 : 0 (no)

Input: So what was the verdict on NC(CO)C(=O)NNCc1ccc(O)c(O)c1O (centres undefined) in this test?
Output: 0 (no)

Input: So what was the verdict on COc1cc(Nc2ncc3c(n2)-c2ccc(Cl)cc2C(c2c(F)cccc2OC)=NC3)ccc1C(=O)O in this test?
Output: 1 (yes)

Input: So what was the verdict on COc1cc2ncnc(-n3nc(-c4ccccn4)nc3N)c2cc1OC in this test?
Output: 1 (yes)

Input: So what was the verdict on COc1cc(Nc2ncc(F)c(Nc3ccc4c(n3)NC(=O)C(C)(C)O4)n2)cc(OC)c1OC in this test?
Output: 1 (yes)

* * *

Biological target: Cellular tumor antigen p53 (Homo sapiens) (UniProt P04637)
Sequence (P04637 whole entry, looked up): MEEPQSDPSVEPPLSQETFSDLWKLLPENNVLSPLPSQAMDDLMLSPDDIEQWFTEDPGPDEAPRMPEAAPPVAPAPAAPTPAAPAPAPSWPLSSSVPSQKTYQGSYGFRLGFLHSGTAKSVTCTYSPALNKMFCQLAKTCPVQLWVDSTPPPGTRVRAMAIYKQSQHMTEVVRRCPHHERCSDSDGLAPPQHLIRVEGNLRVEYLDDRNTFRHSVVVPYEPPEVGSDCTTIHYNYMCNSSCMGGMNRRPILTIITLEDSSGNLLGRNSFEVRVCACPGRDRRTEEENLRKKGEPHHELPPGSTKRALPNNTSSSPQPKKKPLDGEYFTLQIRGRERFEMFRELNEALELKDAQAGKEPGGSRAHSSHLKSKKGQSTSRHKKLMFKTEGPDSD
Assay: Primary qHTS for small molecule compounds that upregulate eGFP-tagged delta133p53alpha (in N-terminal) cells. (AID 2060322);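 note: cells pre-induced with doxycycline then dosed without doxycycline; 0% = DMSO vehicle and 100% = reference activator; nearly all actives have a fitted effect of over 75% in size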
Conditions: NCI-H358 eGFP-delta133p53alpha fluorescence, 24 h; stronger effect = higher value
Inconclusive results are not listed.
READOUT: activation (%)
Numbers only, in %.

Some solved cases for reference:
CC(C)=CCC/C(C)=C/CO[C@@H]1O[C@H](CO)[C@@H](OC(=O)/C=C/c2ccc(O)cc2)[C@H](O[C@@H]2O[C@@H](C)[C@H](O)[C@@H](O)[C@H]2O)[C@H]1O : 19.6
C[C@@H]1C(=O)O[C@H]2CC34[C@H]5C[C@@H](C(C)(C)C)C36[C@@H](OC(=O)[C@@H]6O)O[C@@]4(C(=O)O5)[C@]21O (stereo not given in full) : 19.1
c1ccc(N2CCN(CCc3nn[nH]n3)CC2)cc1 : -1.43
CC(=O)NC(CCC(=O)O)C(=O)NCCc1ccc(O)cc1 (stereo not given) : -14.5
CC(=O)O[C@]1(C(C)=O)CC[C@H]2[C@@H]3C=C(Cl)C4=CC(=O)CC[C@]4(C)[C@H]3CC[C@@]21C : -6.69

Return reported activation values for all items listed beneath this line.
1. COc1cc2c(cc1O)[C@H](c1ccc(O[C@@H]3O[C@H](CO)[C@@H](O)[C@H](O)[C@H]3O)c(OC)c1)[C@@H](CO)[C@](O)(CO)C2
2. CN1C(=O)c2sccc2N(C)c2nc(Nc3ccc(S(N)(=O)=O)cc3)ncc21
3. COc1ccc(-c2c(-c3cc(C(=O)O)ccn3)ncn2C)cc1
4. Cc1nnc(-c2ccc3occ(-c4ccc(S(C)=O)cc4)c3c2)o1 (stereo not given)
5. C=C1CC2C3(C)C(O)CC(=O)C(C)(C)C3C(OC(C)=O)C(OC(C)=O)C2(C)C2C(=O)OC(C)(C(=O)OC)C(=O)C12C (stereo not given)
6. COc1ccc(-c2nc3ccc(C4=NNC(=O)CC4C)cc3[nH]2)cc1 (stereo not given)

Output:
-15.3
-6.75
-2.33
-20.5
-16.8
15.8

Return reported activation values for all items listed beneath this line.
1. CNC(=O)[C@H](Cc1ccccc1)NC(=O)[C@H](CC(C)C)[C@H](CSc1cccs1)C(=O)NO
2. Cc1ncc([N+](=O)[O-])n1CC(O)CN1CCOCC1 (stereo not given)
3. CCCCC(CC)COC(=O)c1ccccc1C(=O)O (stereo not given)

Output:
[-8.09, -11, -12.6]

* * *

Biological target: Cellular tumor antigen p53 (Homo sapiens)
Test: Primary qHTS for small molecule compounds that upregulate eGFP-tagged delta133p53alpha (in C-terminal) cells. (AID 2060324)
Details: NCI-H358 delta133p53alpha-eGFP (C-terminal tag), GFP fluorescence imaging, 24 h; series mostly up to 57.5 µM
Records with an inconclusive call do not appear. Calls of active or inactive are those of the source. Calls come from the whole dose curve; as a rule, active = well fitted activation curve with a large enough effect; inconclusive = small, poorly fitted or top-dose-only effect; inactive = flat fitted curve, though single readings scatter.
Response enum: active, inactive

Worked examples, 5 compounds total:
COC(=O)C(C)(N)Cc1ccc(O)cc1 (configuration not stated) : inactive
CN1C2CC(OC(=O)[C@H](CO)c3ccccc3)CC1C1OC12 (some centres not stated) : inactive
CC(C(=O)O)c1ccc(CC2CCCC2=O)cc1 (configuration not stated) : inactive
O=c1cc(-c2ccccc2F)[nH]c2cc3c(cc12)OCO3 : inactive
CNC(=O)c1cc2c(cn1)[nH]c1ccccc12 : inactive

Input: So what was the verdict on C=CCN1CCc2cc(O)c(O)cc2C(c2ccccc2)C1 (configuration not stated) in this test?
Output: inactive

Input: So what was the verdict on Nc1ncn([C@@H]2O[C@H](CO)[C@@H](O)[C@H]2O)c(=O)n1 in this test?
Output: active

Input: So what was the verdict on CN1CCN(CC(=O)N2c3ccccc3C(=O)Nc3cccnc32)CC1 in this test?
Output: inactive

Input: So what was the verdict on CC(C[N+](C)(C)C)OC(N)=O (configuration not stated) in this test?
Output: inactive

Input: So what was the verdict on COc1ccc(-c2cc3ncc(C)n3c(Nc3ncccc3C(N)=O)n2)cc1OC in this test?
Output: active

Input: So what was the verdict on C[C@](N)(Cc1ccc(O)c(O)c1)C(=O)O in this test?
Output: inactive

Input: So what was the verdict on CCOC(=O)N1CCN(/[N+]([O-])=N/Oc2ccc([N+](=O)[O-])cc2[N+](=O)[O-])CC1 in this test?
Output: inactive

* * *

Molecular target: Cellular tumor antigen p53 (Homo sapiens) (UniProt P04637)
Assay: Primary qHTS for small molecule compounds that upregulate eGFP-tagged delta133p53alpha (in N-terminal) cells. (AID 2060322);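 note: cells pre-induced with doxycycline then dosed without doxycycline; 0% = DMSO vehicle and 100% = reference activator; nearly all actives have a fitted effect of over 75% in size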
Conditions: NCI-H358 eGFP-delta133p53alpha fluorescence, 24 h; stronger effect = higher value
Results filed as inconclusive are left out. Positions of bridges follow the written chain, without caps; N, C: chain ends. Non-standard residues stand in square brackets, D forms with d. Residues, ends and D or L forms follow the SMILES beside them. ξ: configuration not given here. *: point of attachment. Octanoyl(6-Me) = CCC(C)CCCCC(=O)*; ξThr(3R) = C[C@@H](O)C(N)C(=O)O; dDab = NCC[C@@H](N)C(=O)O; Dab = NCC[C@H](N)C(=O)O
Would you mind telling me the reported activation of each entry?
Give bare numbers, in %.

Cc1ccc(-c2cn3c4c(sc3n2)CCCC4)cc1 : 11
O=C(O)c1cc(C(F)(F)F)ccc1N1CC[C@H](OCc2ccccn2)C1 : -17
COC(=O)[C@]12C(=O)C(C)=C(O)[C@@]1(C)C(C)=CC1[C@@]34CC[C@@H](OC(C)=O)C(C)(C)C3[C@H](C[C@]12C)OC4=O (some centres not stated) : 2.29
O=C(O)CCCCC1CCSS1 (configuration not stated) : 5.08
COc1cc2c(cc1O)C1(Cc3ccc4c(c3C1=O)OCO4)N(C)CC2 (configuration not stated) : -7.63
O=C(C[C@@H]1C(C(=O)O)=CO[C@@H](O[C@@H]2O[C@H](CO)[C@@H](O)[C@H](O)[C@H]2O)/C1=C\CO)OCCc1ccc(O)cc1 : 1.53
CCCN(CCC)S(=O)(=O)c1ccc(C(=O)O)cc1 : 8.47
O=S(=O)(N=Cc1c(O)ccc2ccccc12)c1cccs1 : 11.3
C[C@]12C=C[C@@]3(CCC4[C@](C)(CO)CCC[C@@]4(C)C3CC1)C2 (some centres not stated) : -5.36
NC(=O)C(O[C@@H]1O[C@H](CO[C@@H]2O[C@H](CO)[C@@H](O)[C@H](O)[C@H]2O)[C@@H](O)[C@H](O)[C@H]1O)c1ccccc1 (some centres not stated) : -6.11

Return reported activation values for all items listed beneath this line.
1. CC(=O)N1CCN(NC(=O)c2ccc(F)cc2)CC1
2. OCCc1ccc(O[C@@H]2O[C@H](CO)[C@@H](O)[C@H](O)[C@H]2O)cc1
3. C=C1C(=O)OC2CC(C)=C(C(C)CCCO)C(O)C12 (configuration not stated)
4. CN(C)[C@@H]1CCc2[nH]c3ccc(NC(=O)c4ccc(F)cc4)cc3c2C1
5. CN1C2CCC1CC(OC(=O)C(O)c1ccccc1)C2 (configuration not stated)

Output:
1: -2.39; 2: -7.14; 3: 7.14; 4: 0.477; 5: 8.16

Return reported activation values for all items listed beneath this line.
1. C[C@H]1/C=C/C=C/C=C/C=C/C=C/[C@@H](O)[C@H](C(=O)O)[C@H](O)C[C@H](O)CCC[C@H](O)C[C@H](O)C[C@H](O)[C@@H](C)C(=O)O[C@@H]1C
2. CCCCS(=O)(=O)NC(Cc1ccc(OCCCCC2CCNCC2)cc1)C(=O)O (configuration not stated)
3. C[C@@H]1O[C@@H](O[C@H]2[C@H](OC(=O)[C@]34CCC(C)(C)C[C@H]3C3=CCC5[C@@]6(C)C[C@H](O)[C@H](O[C@@H]7O[C@H](C(=O)O)[C@@H](O)[C@H](O)[C@H]7O)[C@@](C)(CO)C6[C@H](O)C[C@@]5(C)[C@]3(C)C[C@H]4O)O[C@@H](CO)[C@@H]2O)[C@H](O)[C@H](O)[C@H]1O[C@@H]1OC[C@@H](O)[C@H](O[C@H]2OC[C@](O)(CO)[C@H]2O)[C@H]1O (some centres not stated)

Output:
1. 13.7
2. 12.9
3. 21.4

Return reported activation values for all items listed beneath this line.
1. Nc1ccc(C(=O)OCC(O)CO)cc1 (configuration not stated)
2. CCC(C)CCCCC(=O)N[C@@H](CCN)C(=O)NC(C(=O)N[C@H](CCN)C(=O)N[C@@H]1CCNC(=O)C([C@@H](C)O)NC(=O)[C@@H](CCN)NC(=O)[C@@H](CCN)NC(=O)[C@@H](CC(C)C)NC(=O)[C@H](Cc2ccccc2)NC(=O)[C@H](CCN)NC1=O)[C@@H](C)O (stereo partly drawn) ({Octanoyl(6-Me)}-[Dab][ξThr(3R)][dDab][dDab][Dab]F[dL][dDab][dDab][ξThr(3R)]; lactam 4-C)
3. COc1ccc(-n2c(SCC#N)nc3sc4c(c3c2=O)CCCC4)cc1

Output:
6.21
11.9
-16.1

Return reported activation values for all items listed beneath this line.
1. COC(=O)C1=CO[C@@H](O[C@@H]2O[C@H](CO)[C@@H](O)[C@H](O)[C@H]2O)/C(=C\CO)[C@@H]1CC(=O)OCCc1ccc(O)cc1
2. CC(C)Nc1nc(Nc2ccccc2)nc(-c2ccccc2)n1
3. CCOC(=O)N1CCN([N+]([O-])=NOc2cc(ON=[N+]([O-])N3CCN(C(=O)OCC)CC3)c([N+](=O)[O-])cc2[N+](=O)[O-])CC1

Output:
-20.6
2.39
5.87

Return reported activation values for all items listed beneath this line.
1. COc1cccc(-c2cc(F)ccc2C2Cc3nc(N)nc(C)c3C(=O)N2)n1 (configuration not stated)
2. O=C(O)Cc1sc(-c2ccccc2)nc1-c1ccc(Cl)cc1
3. C[C@H]1[C@H](NC(=O)C(=NOC(C)(C)C(=O)O)c2csc(N)n2)C(=O)N1S(=O)(=O)O
4. COc1cc(NC(=O)Nc2cccc(CNC(=O)O[C@H]3CCOC3)c2)ccc1-c1cnco1

Output:
[2.86, -17.6, -31.5, 7.14]

Return reported activation values for all items listed beneath this line.
1. C[C@@H]1CCN(C(=O)[C@H](CCCN=C(N)N)NS(=O)(=O)c2cccc3c2NC[C@H](C)C3)[C@@H](C(=O)O)C1
2. O=c1cc(OCc2ccc(F)cc2)ccn1-c1ccc(OCCN2CCCC2)cc1
3. CCCCCCCCc1ccc(-c2ccc(C(=O)O)cc2)cc1
4. C=C1CC[C@@H]2[C@@](C)(CO[C@@H]3O[C@H](CO)C(O)[C@H](O)C3O)[C@H](O)CC[C@@]2(C)[C@@H]1CC/C(C)=C/CO (some centres not stated)

Output:
1: 2.82; 2: -0.955; 3: -87.3; 4: -5.36
